tested on: 883617-216-R-J1-PDC tumor spheroids, viability; assay: Anticancer human tumor 883617-216-R-J1-PDC patient-derived bladder carcinoma cell line growth inhibition [PI3K]; details: second compound 0.316 µM; first compound 3.16 µM; stronger effect = lower value; spheroids with HUVEC and MSC
Note to self: use YES only for viability, T/C readings below 10%; a reading exactly at 10% still gets NO.

// below: answered compounds
1) CCCS(=O)(=O)Nc1ccc(F)c(C(=O)c2c[nH]c3ncc(-c4ccc(Cl)cc4)cc23)c1F + CC(Nc1ncnc2nc[nH]c12)c1cc2cccc(Cl)c2c(=O)n1-c1ccccc1: NO
2) C=CC(=O)N1CCN(c2nc(=O)n(-c3c(C)ccnc3C(C)C)c3nc(-c4c(O)cccc4F)c(F)cc23)C(C)C1 (stereo unspecified) + CC(Nc1ccc2c(c1)OCCn1cc(N3C(=O)OCC3C(F)F)nc1-2)C(N)=O: NO
3) C[C@@H](NC(=O)c1ncnc(N)c1Cl)c1ncc(C(=O)Nc2cc(C(F)(F)F)c(Cl)cn2)s1 + COc1c(OCCCN2CCOCC2)ccc2c3n(c(=NC(=O)c4cnc(N)nc4)nc12)CCN3: YES
4) CC1(C)CCC(CN2CCN(c3ccc(C(=O)NS(=O)(=O)c4ccc(NCC5CCOCC5)c([N+](=O)[O-])c4)c(Oc4cnc5[nH]ccc5c4)c3)CC2)=C(c2ccc(Cl)cc2)C1 + Cc1nc(NC(=O)N2CCCC2C(N)=O)sc1-c1ccnc(C(C)(C)C(F)(F)F)c1: NO
5) CNC(=O)c1ccc(N2C(=S)N(c3ccc(C#N)c(C(F)(F)F)c3)C(=O)C2(C)C)cc1F + CC(Nc1ncnc2nc[nH]c12)c1cc2cccc(Cl)c2c(=O)n1-c1ccccc1: NO
6) Cn1nccc1Nc1nccc(-c2ccn(C(CO)c3ccc(Cl)c(F)c3)c(=O)c2)n1 (stereo unspecified) + CC(Nc1ncnc2nc[nH]c12)c1cc2cccc(Cl)c2c(=O)n1-c1ccccc1: NO

Task: In the record for C#Cc1c(F)ccc2cc(O)cc(-c3ncc4c(N5CC6CCC(C5)N6)nc(OCC56CCCN5CC(F)C6)nc4c3F)c12 (stereo unspecified) + CC(Nc1ncnc2nc[nH]c12)c1cc2cccc(Cl)c2c(=O)n1-c1ccccc1 , is viability, T/C less than 10%?
Result: NO

Task: In the record for C[C@@H](NC(=O)c1ncnc(N)c1Cl)c1ncc(C(=O)Nc2cc(C(F)(F)F)c(Cl)cn2)s1 + CC(Nc1ccc2c(c1)OCCn1cc(N3C(=O)OCC3C(F)F)nc1-2)C(N)=O , is viability, T/C less than 10%?
Result: NO

* * *

test system: 883617-216-R-J1-PDC tumor spheroids, viability; assay: Anticancer human tumor 883617-216-R-J1-PDC cell line growth inhibition [PI3K]; details: second compound 1 µM; first compound 1 µM; stronger effect = lower value; spheroids with HUVEC and MSC;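 note: spheroids exposed to agents for 7 days before the viability read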
Note to self: use Condition met only for viability, T/C readings below 10%; a reading exactly at 10% still gets Condition not met.

1. CC1(C)CCC(CN2CCN(c3ccc(C(=O)NS(=O)(=O)c4ccc(NCC5CCOCC5)c([N+](=O)[O-])c4)c(Oc4cnc5[nH]ccc5c4)c3)CC2)=C(c2ccc(Cl)cc2)C1 + CC(Nc1ccc2c(c1)OCCn1cc(N3C(=O)OCC3C(F)F)nc1-2)C(N)=O: Condition not met
2. CNC(=O)c1ccc(N2C(=S)N(c3ccc(C#N)c(C(F)(F)F)c3)C(=O)C2(C)C)cc1F + Cc1nc(NC(=O)N2CCCC2C(N)=O)sc1-c1ccnc(C(C)(C)C(F)(F)F)c1: Condition not met
3. CCN1CCN(Cc2ccc(Nc3ncc(F)c(-c4cc(F)c5nc(C)n(C(C)C)c5c4)n3)nc2)CC1 + COc1c(OCCCN2CCOCC2)ccc2c3n(c(=NC(=O)c4cnc(N)nc4)nc12)CCN3: Condition met
4. C[C@@H](NC(=O)c1ncnc(N)c1Cl)c1ncc(C(=O)Nc2cc(C(F)(F)F)c(Cl)cn2)s1 + CC(Nc1ncnc2nc[nH]c12)c1cc2cccc(Cl)c2c(=O)n1-c1ccccc1: Condition not met
5. C[C@@H](NC(=O)c1ncnc(N)c1Cl)c1ncc(C(=O)Nc2cc(C(F)(F)F)c(Cl)cn2)s1 + Cc1nc(NC(=O)N2CCCC2C(N)=O)sc1-c1ccnc(C(C)(C)C(F)(F)F)c1: Condition not met

Task: In the record for C#Cc1c(F)ccc2cc(O)cc(-c3ncc4c(N5CC6CCC(C5)N6)nc(OCC56CCCN5CC(F)C6)nc4c3F)c12 (stereo unspecified) + CC(Nc1ncnc2nc[nH]c12)c1cc2cccc(Cl)c2c(=O)n1-c1ccccc1 , is viability, T/C less than 10%?
Result: Condition not met

Task: In the record for CNC(=O)c1ccc(N2C(=S)N(c3ccc(C#N)c(C(F)(F)F)c3)C(=O)C2(C)C)cc1F + CC(Nc1ncnc2nc[nH]c12)c1cc2cccc(Cl)c2c(=O)n1-c1ccccc1 , is viability, T/C less than 10%?
Result: Condition not met

Task: In the record for C[C@@H](NC(=O)c1ncnc(N)c1Cl)c1ncc(C(=O)Nc2cc(C(F)(F)F)c(Cl)cn2)s1 + COc1c(OCCCN2CCOCC2)ccc2c3n(c(=NC(=O)c4cnc(N)nc4)nc12)CCN3 , is viability, T/C less than 10%?
Result: Condition met

Task: In the record for CC1(C)CCC(Nc2ncc(C(F)(F)F)c(-c3c[nH]c4c(P(C)(C)=O)c(C#N)ccc34)n2)CN1 (stereo unspecified) + CC(Nc1ccc2c(c1)OCCn1cc(N3C(=O)OCC3C(F)F)nc1-2)C(N)=O , is viability, T/C less than 10%?
Result: Condition not met

Task: In the record for CC(Cn1ccc(-c2ccc(C#N)c(Cl)c2)n1)NC(=O)c1cc(C(C)O)[nH]n1 (stereo unspecified) + CC(Nc1ccc2c(c1)OCCn1cc(N3C(=O)OCC3C(F)F)nc1-2)C(N)=O , is viability, T/C less than 10%?
Result: Condition not met
